The origin of these recorded values is paper PMC4852132.

assay: UV spectroscopic determination of the pKa for N1-protonated bacimethrin; type: physicochemical; conditions: aqueous triple buffer
measured.metric: pKa
Give the figure by itself; no unit, no explanation.

Given COc1ncc(CO)c(N)n1 [bacimethrin] , respond with its pKa. 5.32

----------
target: E1p-h (Homo sapiens, UniProt P08559+P11177); test: CD titration of E1p-h by acetylphosphinate; type: binding; conditions: read-out: Kd,AcPhi; E1p-h complexed with ThDP; unpublished data
Sequence (P08559 30-390): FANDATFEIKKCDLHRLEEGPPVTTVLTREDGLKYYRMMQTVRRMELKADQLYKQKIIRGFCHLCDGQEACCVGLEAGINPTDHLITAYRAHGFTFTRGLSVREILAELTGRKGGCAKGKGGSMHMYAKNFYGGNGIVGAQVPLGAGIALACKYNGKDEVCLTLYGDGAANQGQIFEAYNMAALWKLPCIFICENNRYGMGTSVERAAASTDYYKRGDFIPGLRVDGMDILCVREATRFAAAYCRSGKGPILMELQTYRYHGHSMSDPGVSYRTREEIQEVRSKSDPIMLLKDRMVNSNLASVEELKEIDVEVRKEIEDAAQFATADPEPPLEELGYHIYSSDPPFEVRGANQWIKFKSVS
Sequence (P11177 31-359): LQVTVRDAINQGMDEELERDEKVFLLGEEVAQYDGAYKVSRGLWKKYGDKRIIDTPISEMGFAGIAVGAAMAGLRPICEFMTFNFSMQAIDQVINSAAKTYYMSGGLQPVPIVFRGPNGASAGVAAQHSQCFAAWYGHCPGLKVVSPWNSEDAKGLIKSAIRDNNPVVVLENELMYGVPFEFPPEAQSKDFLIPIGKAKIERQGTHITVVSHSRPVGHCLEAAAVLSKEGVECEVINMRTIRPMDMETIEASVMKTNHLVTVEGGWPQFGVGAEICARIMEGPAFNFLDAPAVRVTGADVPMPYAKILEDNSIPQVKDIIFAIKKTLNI
measured.metric: pKd
Scale: pKd equals -log10([C]), with [C] in mol/L.

Give me measured pKd, please, for this molecule: CC(=O)[PH](=O)[O-].[Na+] [AcPhi, acetylphosphinic acid sodium salt] 7.37
